Tested on: viable cells in culture
Test: Cell viability assay (CellTiter-Glo Luminescent Cell Viability Assay, ATP quantitation)
Type: cell-based
Conditions: percent of DMSO vehicle control
Answer no (0) if Average Cell Viability after 24 Hours (% DMSO) is under 70 % DMSO, and yes (1) if it is 70 % DMSO or more.

These recorded examples may help you get a feel for the data.
>>> class_assignment("CC(=O)NC(c1ccccc1Cl)c1ccc2cccnc2c1O (stereo not shown) [Compound 1025]")
"yes (1)"
>>> class_assignment("Cc1ccnc(NC(c2cccc([N+](=O)O)c2)c2ccc3ccc(C)nc3c2O)c1 (stereo not shown) [Compound 1084]")
"no (0)"
>>> class_assignment("Cc1ccc(S(=O)(=O)Nc2ccc(O)c3ncccc23)cc1 [Compound 1091]")
"yes (1)"
>>> class_assignment("O=C(NC(c1ccc2c(c1)OCO2)c1cc([N+](=O)[O-])c2cccnc2c1O)C1CCCCC1 (stereo not shown) [Compound 1068]")
"no (0)"
>>> class_assignment("O=C(NC(c1ccc(Cl)cc1)c1ccc2cccnc2c1O)C1CCCCC1 (stereo not shown) [Compound 1045]")
"no (0)"

State whether the measured Average Cell Viability after 24 Hours (% DMSO) reaches 70 % DMSO, counting equality as reaching it, for CCN(CC)c1ccc(C(NC(=O)C(C)C)c2cc(Cl)c3cccnc3c2O)cc1 (stereo not shown) [Compound 1011] no (0)

State whether the measured Average Cell Viability after 24 Hours (% DMSO) reaches 70 % DMSO, counting equality as reaching it, for Oc1c(I)cc(I)c2cccnc12 [Compound 1018] no (0)

State whether the measured Average Cell Viability after 24 Hours (% DMSO) reaches 70 % DMSO, counting equality as reaching it, for COc1ccc(C(NC(=O)C(C)C)c2cc([N+](=O)[O-])c3cccnc3c2O)cc1 (stereo not shown) [Compound 1073] yes (1)

State whether the measured Average Cell Viability after 24 Hours (% DMSO) reaches 70 % DMSO, counting equality as reaching it, for CCCCC(=O)NC(c1ccc2c(c1)OCO2)c1cc([N+](=O)[O-])c2cccnc2c1O (stereo not shown) [Compound 1046] yes (1)

State whether the measured Average Cell Viability after 24 Hours (% DMSO) reaches 70 % DMSO, counting equality as reaching it, for CCCCC(=O)NC(c1ccc(O)c(OCC)c1)c1cc([N+](=O)[O-])c2cccnc2c1O (stereo not shown) [Compound 1075] yes (1)

State whether the measured Average Cell Viability after 24 Hours (% DMSO) reaches 70 % DMSO, counting equality as reaching it, for Oc1c(Cl)cc(Cl)c2cccnc12 [Compound 1020] no (0)

###

Test system: viable cells in culture
Test: Cell viability assay (CellTiter-Glo Luminescent Cell Viability Assay, ATP quantitation)
Type: cell-based
Details: percent of DMSO vehicle control
Entries and their Average Cell Viability after 24 Hours (% DMSO) values follow.
Your answer should be a plain number; it is taken to be in % DMSO.

# example entries with known answers
>>> measured_number("Oc1c(CN2CCN(c3cccc(Cl)c3)CC2)cc(Br)c2cccnc12")
57.7
>>> measured_number("Cc1ccc(S(=O)(=O)Nc2cc(S(=O)(=O)c3ccc(C)cc3)c(O)c3ncccc23)cc1")
66.5
>>> measured_number("CCC(=O)NC(c1ccc(OC)c(OC)c1)c1cc([N+](=O)[O-])c2cccnc2c1O (centres unmarked)")
80.69
>>> measured_number("COc1ccc(C(NC(C)=O)c2cc(Cl)c3cccnc3c2O)cc1OC (centres unmarked)")
80.33
>>> measured_number("Cc1cc(C)n(-c2ccc3c(Cl)cc(Cl)c(O)c3n2)n1")
71.22

Tell me the measured Average Cell Viability after 24 Hours (% DMSO) of Cc1ccnc(NC(c2ccc([N+](=O)O)cc2)c2ccc3ccc(C)nc3c2O)c1 (centres unmarked) , please. 70.69

Tell me the measured Average Cell Viability after 24 Hours (% DMSO) of CC(=O)NC(c1cccs1)c1cc(Cl)c2cccnc2c1O (centres unmarked) , please. 60.8

Tell me the measured Average Cell Viability after 24 Hours (% DMSO) of O=[N+]([O-])c1cc(CN2CCN(c3ccccc3)CC2)c(O)c2ncccc12 , please. 32

Tell me the measured Average Cell Viability after 24 Hours (% DMSO) of COc1cc(C(Nc2ccccn2)c2ccc3cccnc3c2O)cc(Br)c1OC (centres unmarked) , please. 64.8

Tell me the measured Average Cell Viability after 24 Hours (% DMSO) of Oc1c(C(Nc2ccccn2)c2ccccc2Br)ccc2cccnc12 (centres unmarked) , please. 68

Tell me the measured Average Cell Viability after 24 Hours (% DMSO) of CCCOCc1cc(CN2CCCCC2)c(O)c2ncccc12 , please. 56.1
